Field: efflux ratio at 90 min. Provide a value for each of the compounds that follow.
assay: in vitro; type: in vitro ADME; conditions: human, Caco-2
Please give the numeric answer without any surrounding text.

[ask] I have this compound here, "CC(C)[C@H](N)C(=O)Nc1ncnn2c([C@]3(C#N)O[C@H](COC(=O)[C@@H](N)C(C)C)[C@@H](O)[C@H]3O)ccc12" , and I need its recorded efflux ratio at 90 min.
[reply] 15

[ask] I have this compound here, "CC(C)C(=O)OC[C@H]1O[C@@](C#N)(c2ccc3c(NC(=O)[C@@H](N)C(C)C)ncnn23)[C@H](O)[C@@H]1O" , and I need its recorded efflux ratio at 90 min.
[reply] 7.9

[ask] I have this compound here, "N#C[C@@]1(c2ccc3c(NC(=O)c4ccccc4)ncnn23)O[C@H](COC(=O)CC2CCCCC2)[C@@H](O)[C@H]1O" , and I need its recorded efflux ratio at 90 min.
[reply] 0.83

[ask] I have this compound here, "CC1(C)CCC(CC(=O)OC[C@H]2O[C@@](C#N)(c3ccc4c(N)ncnn34)[C@H](O)[C@@H]2O)CC1" , and I need its recorded efflux ratio at 90 min.
[reply] 0.52

[ask] I have this compound here, "CC(C)CC(=O)N[C@H](C(=O)OC[C@H]1O[C@@](C#N)(c2ccc3c(N)ncnn23)[C@H](O)[C@@H]1O)C(C)C" , and I need its recorded efflux ratio at 90 min.
[reply] 2.5

[ask] I have this compound here, "CC(C)CC(=O)O[C@H]1[C@@H](O)[C@](C#N)(c2ccc3c(N)ncnn23)O[C@@H]1COC(=O)CC1CCCCC1" , and I need its recorded efflux ratio at 90 min.
[reply] 0.7
